B1: library; numbered along this chain (parent)
chain: MATDAALRRLLRLHRTEIAVAVDSAFPLLHALADHDVVPEDKFQETLHLKEKEGCPQAFHALLSWLLTQDSTAILDFWRVLFKDYNLERYGRLQPILDSFPKDVDLSQPRKGRKPPAVPKALVPPPRLPTKRKASEEARAAAPAALTPRGTASPGSQLKAKPPKKPESSAEQQRLPLGNGIQTMSASVQRAVAMSSGDVPGARGAVEGILIQQVFESGGSKKCIQVGGEFYTPSKFEDSGSGKNKARSSSGPKPLVRAKGAQGAAPGGGEARLGQQGSVPAPLALPSDPQLHQKNEDECAVCRDGGELICCDGCPRAFHLACLSPPLREIPSGTWRCSSCLQATVQEVQPRAEEPRPQEPPVETPLPPGLRSAGEEVRGPPGEPLAGMDTTLVYKHLPAPPSAAPLPGLDSSALHPLLCVGPEGQQNLAPGARCGVCGDGTDVLRCTHCAAAFHWRCHFPAGTSRPGTGLRCRSCSGDVTPAPVEGVLAPSPARLAPGPAKDDTASHEPALHRDDLESLLSEHTFDGILQWAIQSMARPAAPFPS

# Variants of: B1
# test.protocol: AIRE transcriptional activation functional score (insulin promoter-GFP; nonsense median 0, synonymous median 1) (normalised score); higher = higher AIRE activity (more reporter activation)
# experimental.setup: with insulin promoter-GFP reporter in HEK293
Please respond with reported AIRE transcriptional activation functional score for every item in the list.
Answers are plain numbers.

Sample records with AIRE transcriptional activation functional score:
| mutant.designation | value |
| --- | --- |
| H292A | 0.816 |
| C223E | 0.793 |
| S506V | 0.824 |
| N179S | 0.818 |

The variant `E17A` showed AIRE transcriptional activation functional score equal to 0.78
